# IC50 measurements, system: Lyn-1 (Homo sapiens)
# Sequence (P07948 whole entry): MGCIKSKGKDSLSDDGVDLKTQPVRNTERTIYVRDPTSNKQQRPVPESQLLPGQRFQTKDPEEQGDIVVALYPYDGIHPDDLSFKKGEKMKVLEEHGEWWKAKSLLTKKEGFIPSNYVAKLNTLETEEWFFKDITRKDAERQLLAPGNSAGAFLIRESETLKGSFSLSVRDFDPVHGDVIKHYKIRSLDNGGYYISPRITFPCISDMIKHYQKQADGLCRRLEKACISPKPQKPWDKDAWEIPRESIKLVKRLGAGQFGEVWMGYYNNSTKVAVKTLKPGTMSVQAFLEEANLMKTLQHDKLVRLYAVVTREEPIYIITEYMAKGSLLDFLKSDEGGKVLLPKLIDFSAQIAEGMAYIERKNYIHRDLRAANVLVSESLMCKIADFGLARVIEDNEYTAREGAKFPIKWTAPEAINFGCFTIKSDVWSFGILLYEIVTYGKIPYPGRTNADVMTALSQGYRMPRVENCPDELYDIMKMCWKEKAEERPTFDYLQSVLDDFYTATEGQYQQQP

Param item = COc1cc(Nc2nccc(-n3c(=O)[nH]c4ccccc43)n2)cc(OC)c1OC ; retrieve measured IC50.
1.5 to 5 µM

Quick one: COc1cc(Nc2nccc(Nc3cc(C(C)(C)C)n[nH]3)n2)cc(OC)c1OC
< 1.5 µM

###

- system.name: Hck-1 (Homo sapiens, UniProt P08631)
- Sequence (P08631 whole entry): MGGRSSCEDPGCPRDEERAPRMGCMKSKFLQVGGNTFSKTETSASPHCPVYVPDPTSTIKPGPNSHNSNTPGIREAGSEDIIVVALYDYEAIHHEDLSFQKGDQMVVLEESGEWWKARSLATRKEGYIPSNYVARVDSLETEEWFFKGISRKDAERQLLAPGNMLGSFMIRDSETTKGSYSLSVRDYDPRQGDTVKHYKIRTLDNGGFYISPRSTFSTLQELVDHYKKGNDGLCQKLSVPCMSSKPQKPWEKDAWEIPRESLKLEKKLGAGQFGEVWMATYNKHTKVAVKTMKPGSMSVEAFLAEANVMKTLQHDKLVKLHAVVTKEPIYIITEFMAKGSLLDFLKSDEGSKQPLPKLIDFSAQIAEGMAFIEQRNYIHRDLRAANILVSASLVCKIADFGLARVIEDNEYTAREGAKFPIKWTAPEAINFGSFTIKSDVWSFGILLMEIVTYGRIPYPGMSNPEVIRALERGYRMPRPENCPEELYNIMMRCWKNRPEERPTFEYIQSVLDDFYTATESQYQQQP
observed.property: IC50

Query: IC50; subject: COc1cc(Nc2nccc(-n3ccc4ccccc43)n2)cc(OC)c1OC
≥ 10 µM

###

- system.name: KDR-1 (Homo sapiens)
- Sequence (P35968 20-1356): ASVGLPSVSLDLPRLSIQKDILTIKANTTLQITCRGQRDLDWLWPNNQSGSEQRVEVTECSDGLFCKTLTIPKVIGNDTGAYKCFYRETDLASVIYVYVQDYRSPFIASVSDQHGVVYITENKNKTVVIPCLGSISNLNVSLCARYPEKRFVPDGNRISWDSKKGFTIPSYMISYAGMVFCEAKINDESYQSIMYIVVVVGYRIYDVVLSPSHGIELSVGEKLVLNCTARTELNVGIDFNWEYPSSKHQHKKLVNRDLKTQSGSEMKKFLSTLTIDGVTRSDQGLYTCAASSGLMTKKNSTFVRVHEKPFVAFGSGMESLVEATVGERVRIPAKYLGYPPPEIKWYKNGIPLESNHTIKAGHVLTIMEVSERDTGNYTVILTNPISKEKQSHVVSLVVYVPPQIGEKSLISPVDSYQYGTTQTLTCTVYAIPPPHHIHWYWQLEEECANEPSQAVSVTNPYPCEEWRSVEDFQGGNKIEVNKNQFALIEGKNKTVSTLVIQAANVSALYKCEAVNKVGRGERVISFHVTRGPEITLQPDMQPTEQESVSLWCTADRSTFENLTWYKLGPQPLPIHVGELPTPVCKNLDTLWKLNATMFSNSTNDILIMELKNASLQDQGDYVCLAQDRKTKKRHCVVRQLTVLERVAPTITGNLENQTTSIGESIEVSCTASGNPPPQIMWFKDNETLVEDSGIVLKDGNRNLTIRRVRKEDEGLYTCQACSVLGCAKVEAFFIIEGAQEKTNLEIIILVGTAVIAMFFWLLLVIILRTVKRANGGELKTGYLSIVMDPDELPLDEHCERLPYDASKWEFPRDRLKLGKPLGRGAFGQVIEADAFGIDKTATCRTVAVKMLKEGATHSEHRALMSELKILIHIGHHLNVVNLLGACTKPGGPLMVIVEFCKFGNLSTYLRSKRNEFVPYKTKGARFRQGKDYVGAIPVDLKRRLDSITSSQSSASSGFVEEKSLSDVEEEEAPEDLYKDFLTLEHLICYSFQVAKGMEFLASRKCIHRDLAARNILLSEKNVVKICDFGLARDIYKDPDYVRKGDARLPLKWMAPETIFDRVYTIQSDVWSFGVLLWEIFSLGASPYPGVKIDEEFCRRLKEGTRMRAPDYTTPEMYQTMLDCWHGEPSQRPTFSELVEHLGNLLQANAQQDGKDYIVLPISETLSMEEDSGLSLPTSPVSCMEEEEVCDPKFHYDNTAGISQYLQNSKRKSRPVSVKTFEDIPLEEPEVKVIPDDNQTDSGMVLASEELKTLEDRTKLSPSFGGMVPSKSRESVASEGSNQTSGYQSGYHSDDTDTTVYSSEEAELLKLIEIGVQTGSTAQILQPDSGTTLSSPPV
Parameter: IC50. Scope: all listed entries.

Here is how some molecules turned out for IC50.
- record.smiles: "COc1cc(Nc2nccc(-n3ccc4ccccc43)n2)cc(OC)c1OC"
  system.name: "KDR-1 (Homo sapiens)"
  IC50: "< 1.5 µM"
- record.smiles: "COc1cc(Nc2ccnc(Nc3ccc(OCc4ccccc4)cc3)n2)cc(OC)c1OC"
  system.name: "KDR-1 (Homo sapiens)"
  IC50: "5 to 10 µM"
- record.smiles: "COc1cc(Nc2nccc(-n3c(=O)oc4ccccc43)n2)cc(OC)c1OC"
  system.name: "KDR-1 (Homo sapiens)"
  IC50: "≥ 10 µM"
- record.smiles: "COc1ccc(-c2ccn(-c3ccnc(Nc4cc(OC)c(OC)c(OC)c4)n3)n2)cc1"
  system.name: "KDR-1 (Homo sapiens)"
  IC50: "≥ 10 µM"

Please turn your attention to the following entry.
Recorded IC50 of COc1cc(Nc2ccnc(Nc3ccc(Oc4ccccc4)cc3)n2)cc(OC)c1OC , please.
5 to 10 µM

###

Quick record of pIC50 values for Ret-1 (Homo sapiens).
pIC50: −log10 of the molar value.

- record.smiles: "COc1cc(Nc2nccc(-n3c(=O)[nH]c4ccccc43)n2)cc(OC)c1OC"
  pIC50: "> 5.82"

Next compound, pIC50 to be filled in.
Which pIC50 is listed for COc1ccc(Nc2ccnc(Nc3ccc(OC)c(OC)c3)n2)cc1OC ?
5.30 to 5.82

###

This document collects pIC50 values reported for Zap-1 (Homo sapiens, UniProt P43403).
pIC50: −log10 of the molar value.

Study these solved cases before continuing.
- record.smiles: "COc1cc(Nc2nccc(-n3c(=O)[nH]c4ccccc43)n2)cc(OC)c1OC"
  system.name: "Zap-1 (Homo sapiens, UniProt P43403)"
  pIC50: "5.30 to 5.82"
- record.smiles: "COc1cc(Nc2nccc(-n3ccc4ccccc43)n2)cc(OC)c1OC"
  system.name: "Zap-1 (Homo sapiens, UniProt P43403)"
  pIC50: "≤ 5.00"

Query pIC50 on Zap-1 (Homo sapiens, UniProt P43403) for COc1ccc(-c2ccn(-c3ccnc(Nc4cc(OC)c(OC)c(OC)c4)n3)n2)cc1
Sequence (P43403 whole entry): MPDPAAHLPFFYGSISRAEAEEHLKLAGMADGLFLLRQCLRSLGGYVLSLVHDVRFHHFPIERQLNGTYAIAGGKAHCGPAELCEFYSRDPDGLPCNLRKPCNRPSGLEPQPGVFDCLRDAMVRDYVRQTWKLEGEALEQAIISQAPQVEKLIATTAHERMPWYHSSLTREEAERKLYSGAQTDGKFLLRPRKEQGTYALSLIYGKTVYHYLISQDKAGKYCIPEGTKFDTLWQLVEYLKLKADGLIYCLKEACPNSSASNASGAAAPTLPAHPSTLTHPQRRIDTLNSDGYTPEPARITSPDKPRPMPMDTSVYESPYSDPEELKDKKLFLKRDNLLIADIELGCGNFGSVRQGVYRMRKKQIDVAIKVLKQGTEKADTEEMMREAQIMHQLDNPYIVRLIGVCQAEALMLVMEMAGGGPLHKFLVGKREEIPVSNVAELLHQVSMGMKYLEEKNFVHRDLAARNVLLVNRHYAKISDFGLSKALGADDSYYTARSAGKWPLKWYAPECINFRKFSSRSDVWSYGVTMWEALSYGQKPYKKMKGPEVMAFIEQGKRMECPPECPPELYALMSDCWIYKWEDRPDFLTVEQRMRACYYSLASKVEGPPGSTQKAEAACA
5.00 to 5.30

Request: COc1ccc(Nc2ccnc(Nc3ccc(OC)c(OC)c3)n2)cc1OC
≤ 5.00

###

# Lookup of reported IC50 keyed by entry
- system.name: Lck-2 (Homo sapiens, UniProt P06239)
- Construct: Kinases are expressed as either kinase domains or full-length constructs; made in house
- Sequence (P06239 whole entry, the tested form may be a part): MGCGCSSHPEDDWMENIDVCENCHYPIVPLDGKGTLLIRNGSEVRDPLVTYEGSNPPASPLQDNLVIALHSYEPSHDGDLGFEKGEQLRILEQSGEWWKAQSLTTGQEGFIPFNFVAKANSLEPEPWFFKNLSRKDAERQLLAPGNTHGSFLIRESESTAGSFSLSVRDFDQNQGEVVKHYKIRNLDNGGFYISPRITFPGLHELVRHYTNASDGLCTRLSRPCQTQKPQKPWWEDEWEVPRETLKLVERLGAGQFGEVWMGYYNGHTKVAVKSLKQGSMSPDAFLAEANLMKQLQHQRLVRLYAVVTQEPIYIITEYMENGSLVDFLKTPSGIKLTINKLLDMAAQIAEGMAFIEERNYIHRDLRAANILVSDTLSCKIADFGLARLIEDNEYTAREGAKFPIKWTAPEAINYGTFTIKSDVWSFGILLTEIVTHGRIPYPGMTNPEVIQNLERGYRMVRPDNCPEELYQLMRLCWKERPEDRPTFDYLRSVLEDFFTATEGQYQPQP
- assay.notes: Kinase inhibition, 33P transfer to plate-bound substrate: Lck-2
- Type: biochemical

Example entries begin here.
- record.smiles: "COc1cc(Nc2nccc(-n3c(=O)oc4ccccc43)n2)cc(OC)c1OC"
  IC50: "≥ 10 µM"
- record.smiles: "COc1cc(Nc2nccc(-n3ccc4ccccc43)n2)cc(OC)c1OC"
  IC50: "< 1.5 µM"
- record.smiles: "Clc1cccc(Nc2ccnc(Nc3cccc(Cl)c3)n2)c1"
  IC50: "< 1.5 µM"
- record.smiles: "COc1cc(Nc2ccnc(Nc3ccc(OCc4ccccc4)cc3)n2)cc(OC)c1OC"
  IC50: "< 1.5 µM"

Turning to the following molecule.
Request: IC50, test system Lck-2 (Homo sapiens, UniProt P06239), entry COc1cc(Nc2ccnc(-n3ccc4ccccc43)n2)cc(OC)c1OC
≥ 10 µM

###

- system.name: Src-1 (Homo sapiens)
// values below are reported IC50

- record.smiles: "COc1ccc(Nc2ccnc(Nc3ccc(OC)c(OC)c3)n2)cc1OC"
  system.name: "Src-1 (Homo sapiens)"
  IC50: "1500 to 5000 nM"

API: the following record is the query input.
Please provide the recorded IC50 for COc1cc(Nc2nccc(-n3ccc4ccccc43)n2)cc(OC)c1OC , tested on Src-1 (Homo sapiens).
< 1500 nM

###

pIC50: −log10 of the molar value.
pIC50 data for UniProt P08581 follow.
Sequence (P08581 25-1390): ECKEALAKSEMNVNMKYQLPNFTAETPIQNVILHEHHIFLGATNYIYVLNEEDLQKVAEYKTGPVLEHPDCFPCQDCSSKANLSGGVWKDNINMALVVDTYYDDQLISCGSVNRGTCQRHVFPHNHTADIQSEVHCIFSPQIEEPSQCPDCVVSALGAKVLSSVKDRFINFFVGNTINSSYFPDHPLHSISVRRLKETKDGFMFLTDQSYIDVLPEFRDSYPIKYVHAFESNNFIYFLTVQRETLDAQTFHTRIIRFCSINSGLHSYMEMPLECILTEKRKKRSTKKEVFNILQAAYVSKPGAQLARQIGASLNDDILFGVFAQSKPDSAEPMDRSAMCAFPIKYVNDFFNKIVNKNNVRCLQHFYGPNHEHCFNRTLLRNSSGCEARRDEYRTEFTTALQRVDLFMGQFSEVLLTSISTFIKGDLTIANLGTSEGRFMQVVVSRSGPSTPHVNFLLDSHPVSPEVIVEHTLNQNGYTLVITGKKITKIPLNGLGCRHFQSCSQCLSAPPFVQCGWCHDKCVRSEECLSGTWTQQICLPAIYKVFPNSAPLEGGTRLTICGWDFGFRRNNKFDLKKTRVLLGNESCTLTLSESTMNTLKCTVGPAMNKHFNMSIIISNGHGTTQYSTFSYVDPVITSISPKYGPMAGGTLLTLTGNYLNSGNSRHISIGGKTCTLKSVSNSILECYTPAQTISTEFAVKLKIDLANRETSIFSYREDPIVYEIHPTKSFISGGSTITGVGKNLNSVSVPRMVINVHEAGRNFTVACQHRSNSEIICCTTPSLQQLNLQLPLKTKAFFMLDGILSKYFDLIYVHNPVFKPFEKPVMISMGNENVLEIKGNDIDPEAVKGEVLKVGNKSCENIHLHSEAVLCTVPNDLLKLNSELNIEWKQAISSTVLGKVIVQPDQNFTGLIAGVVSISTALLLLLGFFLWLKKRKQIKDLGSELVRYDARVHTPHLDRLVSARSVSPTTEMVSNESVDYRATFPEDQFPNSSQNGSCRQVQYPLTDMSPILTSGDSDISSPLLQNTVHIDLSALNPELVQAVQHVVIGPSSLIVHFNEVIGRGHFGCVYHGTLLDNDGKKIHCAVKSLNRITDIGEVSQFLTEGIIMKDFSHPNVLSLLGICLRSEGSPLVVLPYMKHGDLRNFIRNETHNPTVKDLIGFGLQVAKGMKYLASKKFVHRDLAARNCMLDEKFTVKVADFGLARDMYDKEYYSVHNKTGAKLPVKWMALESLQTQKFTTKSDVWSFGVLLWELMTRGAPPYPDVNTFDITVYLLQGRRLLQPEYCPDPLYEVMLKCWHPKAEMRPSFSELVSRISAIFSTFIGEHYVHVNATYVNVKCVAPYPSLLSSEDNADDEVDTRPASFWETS

See these solved cases before continuing.
- record.smiles: "COc1ccc(Nc2ccnc(Nc3ccc(OC)c(OC)c3)n2)cc1OC"
  pIC50: "≤ 5.00"
- record.smiles: "COc1cc(Nc2ccnc(Nc3ccc(OCc4ccccc4)cc3)n2)cc(OC)c1OC"
  pIC50: "5.00 to 5.30"
- record.smiles: "COc1cc(Nc2nccc(-n3c(N)nc4ccccc43)n2)cc(OC)c1OC"
  pIC50: "5.00 to 5.30"
- record.smiles: "Cc1cccc(Nc2nccc(Nc3cccc(Br)c3)n2)c1"
  pIC50: "≤ 5.00"
- record.smiles: "COc1cc(Nc2nccc(Nc3ccc4c(cnn4Cc4ccccc4)c3)n2)cc(OC)c1OC"
  pIC50: "5.30 to 5.82"

Param item = COc1cc(Nc2nccc(Nc3cc(C(C)(C)C)n[nH]3)n2)cc(OC)c1OC ; retrieve measured pIC50.
> 5.82

Then what about the compound COc1cc(Nc2nccc(-n3c(=O)[nH]c4ccccc43)n2)cc(OC)c1OC ?
5.30 to 5.82

###

- system.name: Lck-2 (Homo sapiens)
In this section, each of the molecules is paired with its reported IC50.

# example entries with known answers
- record.smiles: "COc1ccc(-c2ccn(-c3ccnc(Nc4cc(OC)c(OC)c(OC)c4)n3)n2)cc1"
  assay.value: "≥ 10 µM"
- record.smiles: "COc1cc(Nc2nccc(Nc3ccc4c(cnn4Cc4ccccc4)c3)n2)cc(OC)c1OC"
  assay.value: "< 1.5 µM"
- record.smiles: "COc1cc(Nc2nccc(-n3c(N)nc4ccccc43)n2)cc(OC)c1OC"
  assay.value: "1.5 to 5 µM"

Now for another entry.
Field request: IC50 | item: COc1cc(Nc2ccnc(Nc3ccc4c(cnn4Cc4ccccc4)c3)n2)cc(OC)c1OC
< 1.5 µM
